Data provenance is patent US20210024635A1.

# system: T1, WT1 RMF peptide/HLA-A0201 complex (isolated, recombinant, biotinylated) (human)
# T1 construct: also called RMF/HLA; RMF/HLA complex
# test-details: ELISA on Neutravidin plates, Fab; '++' = EC50 below 10 nM, '+' = EC50 of more than 10 nM
// reported EC50 per item

Please review the following examples before continuing.
binder="Cyprus (Fab) (Fab, V domains shown, Tested in monovalent Fab format) VH: QVQLVESGGGLVKPGGSLRLSCAASGFTFSDYYMSWIRQAPGKGLEWVSYISSSGSTIYYADSVKGRFTISRDNAKNSLYLQMNSLRAEDTAVYYCARDGLRYFYGFDYWGQGTLVTVSS VL: QSVLTQPPSVSAAPGQKVTISCSGSSSNIGNNYVSWYQQLPGTAPKLLIYDNNKRPSGIPDRFSGSKSGTSATLGITGLQTEDEADYYCQAWVHYSLVHWVFGGGTKLTVLG" reported_result="< 10 nM"
binder="Daniel (Fab) (Fab, V domains shown, Tested in monovalent Fab format) VH: QVQLVQSGAEVKKPGASVKVSCKASGYTFTSYYMHWVRQAPGQGLEWMGIINPSGGSTSYAQKFQGRVTMTRDTSTSTVYMELSSLRSEDTAVYYCAREGYTPGGSYTFDIWGQGTLVTVSS VL: QSVLTQPPSVSAAPGQKVTISCSGSSSNIGNNYVSWYQQLPGTAPKLLIYDNNKRPSGIPDRFSGSKSGTSATLGITGLQTEDEADYYCGSWDGFVSSYSVFGGGTKLTVLG" reported_result="< 10 nM"
binder="Aali (Fab) (Fab, V domains shown, Tested in monovalent Fab format; also called Aali Fab fragment) VH: QVQLVESGGGLVKPGGSLRLSCAASGFTFSDHYISWIRQAPGKGLEWVSYISSSGSTTYYAESVKGRFTISRDNAKNSLYLQMNSLRAEDTAVYYCARTYAYRYDFDLWGQGTLVTVSS VL: QSVLTQPPSVSGAPGQRVTISCTGSSSNIGAGYDVHWYQQLPGTAPKLLIYGNSNRPSGVPDRFSGSKSGTSASLAITGLQAEDEADYYCQTWVHSYSTPVFGGGTKLTVLG" reported_result="< 10 nM"

Then this binder:
Incoming: Which EC50 reading was recorded for the binder Fiwi (Fab) (Fab, V domains shown, Tested in monovalent Fab format) VH: EVQLVESGGGLVKPGGSLRLSCAASGFTFSNYWISWVRQAPGKGLEWVGRIKSKTYGGTTDYAEPVKGRFTISRDDSKNTLYLQMNSLKTEDTAVYYCARGRYPELGYFDLWGQGTLVTVSS VL: QSVLTQPPSVSAAPGQKVTISCSGSSSNIGNNYVSWYQQLPGTAPKLLIYDNNKRPSGIPDRFSGSKSGTSATLGITGLQTEDEADYYCGAWDSYLSVSFVFGGGTKLTVLG ?
Outgoing: > 10 nM
